Data origin: PubChem BioAssay AID2314

// reported max response per item
Assay: Cycloheximide Counterscreen for Small Molecule Inhibitors of Shiga Toxin; also: read at 38.3 µM for the half of the compounds with a filed dose; 0% is about no effect
Conditions: cell reporter, cycloheximide protein synthesis inhibition counterscreen; hits give high values
The whole screen tested about 300,000 compounds, of which about 37,000 (12%) were called active. The entries come from a sample that favours actives as a whole.

{"compound": "COc1cc(NC(=S)NNC(=O)CC(C)C)c(OC)cc1Cl", "units-of-measure": "%", "max response": -6.7}
{"compound": "COc1cc(NC(=S)N2CCCC(C)C2)cc(OC)c1OC (stereo not given)", "units-of-measure": "%", "max response": -2.44}
{"compound": "CC1CC(C)CN(S(=O)(=O)c2cccc3nonc23)C1 (stereo not given)", "units-of-measure": "%", "max response": -1.35}
{"compound": "O=C(CN(Cc1ccccc1)C(=O)CCC(=O)Nc1ccccn1)NCCc1ccccc1", "units-of-measure": "%", "max response": -3.42}
{"compound": "COc1cccc(-c2cc(=O)c3cc(NC(=O)c4ccc(C)cc4)ccc3[nH]2)c1", "units-of-measure": "%", "max response": -0.33}
{"compound": "Cc1nn(CCCC(=O)NCc2ccccc2Cl)c(=O)c2nccn12", "units-of-measure": "%", "max response": -3.04}
{"compound": "O=C(COC(=O)c1ccc(S(=O)(=O)N2CCc3ccccc3C2)cc1)NC(=O)NCc1ccco1", "units-of-measure": "%", "max response": 6.51}
{"compound": "COc1ccc(-n2nc3c(N4CCC(C(=O)NCc5ccccc5)CC4)nnc(C)c3c2C)cc1", "units-of-measure": "%", "max response": -13.3}
{"compound": "CCn1ccnc1CNC(=O)CC1C(=O)NCCN1CCCc1ccccc1 (stereo not given)", "units-of-measure": "%", "max response": -2.05}
{"compound": "O=C(CCC1CCCN(C(=O)Cc2ccc(F)cc2)C1)N1CCN(c2ccccn2)CC1 (stereo not given)", "units-of-measure": "%", "max response": -1.12}

---

Assay: Cycloheximide Counterscreen for Small Molecule Inhibitors of Shiga Toxin; also: read at 38.3 µM for the half of the compounds with a filed dose; 0% is about no effect
Conditions: cell reporter, cycloheximide protein synthesis inhibition counterscreen
Out of some 300,000 compounds screened, about 37,000 (12%) were called active. Cut-off read from the data, not from the text of the source: active = max response mostly above about 13% (no sharp cut-off); inactive = mostly below about 14%. The sample as a whole holds a higher share of actives than the screen did.
Outcome codes: active, inactive

{"molecule": "CCOC(=O)c1c(C)[nH]c(C(=O)NCCN2CCOCC2)c1C", "class-label": "inactive"}
{"molecule": "COc1ccc(NC(=O)c2cn(-c3ccccc3)nc2SC)cc1", "class-label": "active"}
{"molecule": "CC(=O)c1c(C)[nH]c(C(=O)NCc2ccc(C)cc2)c1C", "class-label": "inactive"}
{"molecule": "CCNS(=O)(=O)c1ccc(NC(=O)Nc2cccc(OC)c2)cc1", "class-label": "inactive"}
{"molecule": "O=C(NCc1cccnc1)c1cccc(-c2cc3ccccc3oc2=O)c1", "class-label": "inactive"}
{"molecule": "Cc1[nH]n(-c2ccc([N+](=O)[O-])cc2)c(=O)c1C=NCCN1CCN(C(=O)c2ccccc2F)CC1", "class-label": "inactive"}
{"molecule": "CCc1ccc(CNC(=O)C2CC(=O)N(CCc3ccc(C)cc3)C2)cc1 (stereo not given)", "class-label": "inactive"}
{"molecule": "Cc1cccc(-n2c(=O)c3c(C)c(C)sc3n(CC(N)=O)c2=O)c1", "class-label": "inactive"}
{"molecule": "Cc1ccc(C)c(CN2CCC(CNC(=O)Nc3ccc(C)c(F)c3)CC2)c1", "class-label": "inactive"}
{"molecule": "COc1cccc(NC(C)=[N+](C)CCNS(=O)(=O)c2ccc(Cl)cc2)c1", "class-label": "active"}
